- TEST TARGET: recombinant human Cathepsin K (Homo sapiens (Human))
- Sequence (P43235 115-329): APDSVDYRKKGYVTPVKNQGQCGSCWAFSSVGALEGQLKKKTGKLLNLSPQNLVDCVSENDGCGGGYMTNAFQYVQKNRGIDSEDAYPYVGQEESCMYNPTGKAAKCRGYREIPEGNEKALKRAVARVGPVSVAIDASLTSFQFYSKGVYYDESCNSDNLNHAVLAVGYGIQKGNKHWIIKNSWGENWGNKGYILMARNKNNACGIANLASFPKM
- ASSAY REMARKS: Inhibition of human Cathepsin K
- ASSAY CONTEXT: substrate Z-Gly-Pro-Arg-AMC
pIC50: −log10 of the molar value.

COMPOUND	TEST TARGET	pIC50
N#CC(Cc1ccc(-c2ccc3c(c2)CC(=O)N3)cc1F)NC(=O)[C@H]1N[C@@H]2CC[C@H]1C2 (stereo partly drawn)	recombinant human Cathepsin K (Homo sapiens (Human))	5.46
CS(=O)(=O)Nc1ccc(-c2ccc(C[C@@H](C#N)NC(=O)[C@H]3N[C@H]4C[C@@H]3[C@@H]3C[C@@H]34)c(F)c2)cc1	recombinant human Cathepsin K (Homo sapiens (Human))	5.08
CN1CCN(C(=O)c2coc(-c3ccc(C[C@@H](C#N)NC(=O)[C@H]4N[C@@H]5CC[C@H]4C5)c(F)c3)c2)CC1	recombinant human Cathepsin K (Homo sapiens (Human))	5.60
